Hey, just so you know, these numbers are from PubChem BioAssay (NCI).

Listing of recorded TGI by entry.
# Test system: NCI/ADR-RES ovarian
# runDescription: NCI tumour cell line growth inhibition, 48 h
Where a SMILES comes first, the peptide text is derived from it. [ ]: non-standard residue; d: D form.

compound | TGI
CC(C)(C)CC(C)(C)NCC(O)COc1ccc(C(C)(C)c2ccc(OCC(O)CNC(C)(C)CC(C)(C)C)cc2)cc1 (stereo not given) | 2.84 µM
O=C(N/N=C/c1ccc(N(CCCl)CCCl)cc1)c1ccc(C(=O)N/N=C/c2ccc(N(CCCl)CCCl)cc2)cc1 | > 100 µM
COc1ccc(/C=C(/c2ccc(OC)cc2)c2c(Cl)cc(Cl)c(/C(=C\c3ccc(OC)cc3)c3ccc(OC)cc3)c2N=Nc2ccccc2)cc1 | > 100 µM
CSCC[C@H](NC(=O)[C@@H](N)CC(N)=O)C(=O)N[C@@H](Cc1c[nH]c2ccccc12)C(=O)N[C@@H](CCC(N)=O)C(=O)N[C@@H](CCC(=O)O)C(=O)N[C@H](C(=O)NCC(=O)N[C@@H](CCCCN)C(=O)N[C@H](C)C(=O)O)C(C)C (H-NMWQEVGK[dA]-OH) | > 100 µM
COc1ccc(C2NC(N)=C(C#N)C3=C2C(C)CCC3)cc1OC (stereo not given) | > 100 µM
